Biological target: T1, recombinant human CTLA4-Fc (human, UniProt P16410 36-162)
T1 construct: also called human CTLA4 fused with human FC fragment; CTLA4-Fc (Sino Biological, 11159-H03H)
T1 sequence (looked up): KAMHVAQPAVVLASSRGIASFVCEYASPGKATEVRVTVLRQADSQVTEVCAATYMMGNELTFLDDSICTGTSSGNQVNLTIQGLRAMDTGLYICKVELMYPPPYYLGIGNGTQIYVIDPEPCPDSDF
Assay: BLI Octet, CTLA4-Fc on AHC sensor, Fab 10 ug/mL
readout_label: Kd (nM)
Answers are plain numbers, in nM.

[[record]]
binder = "B15722 (Fab, V domains shown, Fab from E. coli; also called Fab hit of TY21587) VH: EVQLVESGGGLVQPGGSLRLSCAASGFTFSDYGIHWVRQAPGKGLEWIGEIYHSGSTYYSPSLKSRVTISRDNSKNTLYLQLNSLRAEDTAVYYCARDVAPGSSGYYDGFDFWGQGTLVTVSS VL: DIQLTQSPSSLSASVGDRVTITCRASQGIGSSLAWYQQKPGKAPKLLIYDASNRATGIPSRFSGSGSGTDFTLTISSLQPEDFATYYCQQYDQWPPWTFGQGTKVEIKR"
quantitative_result = 61.2


Proceeding to the next binder to report its Kd.
Input line: Report Kd for B15740 (Fab, V domains shown, Fab from E. coli; also called Fab hit of TY21589) VH: EVQLVESGGGLVQPGGSLRLSCAASGFTFSDYWIHWVRQAPGKGLEWIGWISPSGGGTKYAQKFQGRVTISRDNSKNTLYLQLNSLRAEDTAVYYCARGAYEFDYWGQGTLVTVSS VL: DIQLTQSPSSLSASVGDRVTITCRASQSVSSRFLAWYQQKPGKAPKLLIYDASNRATGIPSRFSGSGSGTDFTLTISSLQPEDFATYYCQQSYPTPLTFGQGTKVEIKR please.
Output line: 14.5
